- System: 883617-216-R-J1-PDC complex spheroid viability;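 further: spheroids exposed to compounds for seven days before readout; 100% = DMSO vehicle control viability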
- ASSAY_PROTOCOL: Anticancer human tumor 883617-216-R-J1-PDC patient-derived bladder carcinoma cell line growth inhibition [POLQ]
- RUN_CONDITIONS: second compound 0.1 µM; first compound 0.0316 µM; active compounds read low
MEASUREMENT_NAME: viability, T/C (%)
Could you give me the number in %? Just the number is fine.

Query: Return reported viability, T/C; argument: CCCS(=O)(=O)Nc1ccc(F)c(C(=O)c2c[nH]c3ncc(-c4ccc(Cl)cc4)cc23)c1F + COC1C(OC(N)=O)C(O)C(Oc2ccc3c(O)c(NC(=O)c4ccc(O)c(CC=C(C)C)c4)c(=O)oc3c2C)OC1(C)C
Response: 105

Query: Return reported viability, T/C; argument: Cn1ncnc1[C@H]1c2n[nH]c(=O)c3cc(F)cc(c23)N[C@@H]1c1ccc(F)cc1 + COC1C(OC(N)=O)C(O)C(Oc2ccc3c(O)c(NC(=O)c4ccc(O)c(CC=C(C)C)c4)c(=O)oc3c2C)OC1(C)C
Response: 75.8

Query: Return reported viability, T/C; argument: CC(C)n1c(=O)n(C)c2cnc3cc(F)c(-c4ccc(OCCCN5CCCCC5)nc4)cc3c21 + COC1C(OC(N)=O)C(O)C(Oc2ccc3c(O)c(NC(=O)c4ccc(O)c(CC=C(C)C)c4)c(=O)oc3c2C)OC1(C)C
Response: 99

Query: Return reported viability, T/C; argument: COc1cccc2c1C(=O)c1c(O)c3c(c(O)c1C2=O)CC(O)(C(=O)CO)CC3OC1CC(N)C(O)C(C)O1 (stereo not given) + Nc1ccc(C#CCN(C(=O)Cc2ncc(C(F)(F)F)cc2C(F)(F)F)c2ccc(F)cc2)nn1
Response: 71.3

Query: Return reported viability, T/C; argument: CCc1c2c(nc3ccc(O)cc13)-c1cc3c(c(=O)n1C2)COC(=O)[C@]3(O)CC + COC1C(OC(N)=O)C(O)C(Oc2ccc3c(O)c(NC(=O)c4ccc(O)c(CC=C(C)C)c4)c(=O)oc3c2C)OC1(C)C
Response: 59.9

Query: Return reported viability, T/C; argument: CCc1cc2c(N3CCc4c(cc(Cn5ccnc5)cc4-c4cn(C)nc4C(F)(F)F)C3=O)ccnc2c(OC)n1 + Cc1cccc(N(C)C(=O)C2C(O)CCN2c2nc(C)cc(C(F)(F)F)c2C#N)c1
Response: 93

Query: Return reported viability, T/C; argument: CCc1cc2c(N3CCc4c(cc(Cn5ccnc5)cc4-c4cn(C)nc4C(F)(F)F)C3=O)ccnc2c(OC)n1 + COC1C(OC(N)=O)C(O)C(Oc2ccc3c(O)c(NC(=O)c4ccc(O)c(CC=C(C)C)c4)c(=O)oc3c2C)OC1(C)C
Response: 97.8

Query: Return reported viability, T/C; argument: CC[C@@]1(O)C(=O)OCc2c1cc1n(c2=O)Cc2cc3c(CN(C)C)c(O)ccc3nc2-1 + COC1C(OC(N)=O)C(O)C(Oc2ccc3c(O)c(NC(=O)c4ccc(O)c(CC=C(C)C)c4)c(=O)oc3c2C)OC1(C)C
Response: 55.2

Query: Return reported viability, T/C; argument: COc1cc(C2c3cc4c(cc3C(OC3OC5COC(C)OC5C(O)C3O)C3COC(=O)C23)OCO4)cc(OC)c1O (stereo not given) + Cc1cccc(N(C)C(=O)C2C(O)CCN2c2nc(C)cc(C(F)(F)F)c2C#N)c1
Response: 109

---
Query: Return reported viability, T/C; argument: COc1cc2cc(C(=O)CCC(=O)O)sc2cc1OC + COC1C(OC(N)=O)C(O)C(Oc2ccc3c(O)c(NC(=O)c4ccc(O)c(CC=C(C)C)c4)c(=O)oc3c2C)OC1(C)C
Response: 113
